- system-tested: TNKS1 (Homo sapiens)
- Sequence (O95271 1-1327): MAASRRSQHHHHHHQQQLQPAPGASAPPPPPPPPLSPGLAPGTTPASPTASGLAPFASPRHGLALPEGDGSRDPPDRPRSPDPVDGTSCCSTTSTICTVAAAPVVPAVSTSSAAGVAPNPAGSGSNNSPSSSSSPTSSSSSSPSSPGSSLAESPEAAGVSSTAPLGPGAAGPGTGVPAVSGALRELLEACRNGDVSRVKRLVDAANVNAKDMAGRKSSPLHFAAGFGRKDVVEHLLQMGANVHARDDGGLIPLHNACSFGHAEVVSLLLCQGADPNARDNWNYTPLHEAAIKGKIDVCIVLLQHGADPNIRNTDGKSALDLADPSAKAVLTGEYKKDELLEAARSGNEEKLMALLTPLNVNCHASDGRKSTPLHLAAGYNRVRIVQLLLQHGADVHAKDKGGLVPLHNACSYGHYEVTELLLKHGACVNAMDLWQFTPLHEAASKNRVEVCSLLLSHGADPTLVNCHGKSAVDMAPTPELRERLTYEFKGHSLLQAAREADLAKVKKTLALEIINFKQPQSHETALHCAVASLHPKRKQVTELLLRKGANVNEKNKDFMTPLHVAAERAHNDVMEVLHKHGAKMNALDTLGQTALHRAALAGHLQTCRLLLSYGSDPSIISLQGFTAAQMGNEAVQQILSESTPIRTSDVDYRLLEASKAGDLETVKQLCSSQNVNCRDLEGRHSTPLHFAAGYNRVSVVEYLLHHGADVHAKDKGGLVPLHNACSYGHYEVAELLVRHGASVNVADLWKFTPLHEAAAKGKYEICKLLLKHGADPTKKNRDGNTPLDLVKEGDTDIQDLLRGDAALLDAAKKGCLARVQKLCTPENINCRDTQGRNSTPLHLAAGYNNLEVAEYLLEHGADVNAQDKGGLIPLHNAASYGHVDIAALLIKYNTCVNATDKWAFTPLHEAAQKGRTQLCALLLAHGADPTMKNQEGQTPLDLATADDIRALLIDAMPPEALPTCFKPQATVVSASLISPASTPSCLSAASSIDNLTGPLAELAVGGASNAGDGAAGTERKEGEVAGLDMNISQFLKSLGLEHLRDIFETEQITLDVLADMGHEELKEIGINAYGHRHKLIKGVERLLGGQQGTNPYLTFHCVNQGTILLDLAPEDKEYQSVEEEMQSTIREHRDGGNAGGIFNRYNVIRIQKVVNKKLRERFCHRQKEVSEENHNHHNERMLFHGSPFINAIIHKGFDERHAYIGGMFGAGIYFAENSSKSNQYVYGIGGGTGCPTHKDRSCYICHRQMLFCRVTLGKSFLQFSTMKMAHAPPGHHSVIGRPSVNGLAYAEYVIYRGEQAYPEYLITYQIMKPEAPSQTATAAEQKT
pIC50: −log10 of the molar value.
measurement-kind: pIC50

P. CCNC(=O)c1[nH]cnc1C(=O)N[C@H]1CC[C@@]2(CCN(c3ccc(F)cc3Cl)C2=O)CC1 [Example 141]
Q. COCC(C)NC(=O)c1nc[nH]c1C(=O)N[C@H]1CC[C@H](C(=O)Nc2c(F)cc(F)cc2Cl)CC1 (stereo partly shown) [Example 65]
R. O=C(N[C@H]1CC[C@H](C(=O)Nc2cc(F)c(F)cc2Cl)CC1)c1cnn2cccnc12 [Example 130]
Order the entries above from lowest to highest pIC50. Output spec: labels arranged per the requested ranking. Q, R, P
